- Tested on: CEM cells HIV-1 protection, formazan growth assay
- ASSAY_METHOD_TEXT: NCI AIDS Antiviral Assay
- TEST_CONTEXT: measured here: growth of uninfected CEM cells
PROPERTY: pIC50
Answer as the number alone; pIC50 is minus log10 of concentration in mol/L.

Field: example entries. Status: answers known.
| COMPOUND | SYSTEM | pIC50 |
| --- | --- | --- |
| COc1ccc(-c2c(C)oc(=O)c(NC(=O)c3ccccc3)c2C)cc1 | CEM cells HIV-1 protection, formazan growth assay | 4.24 |
| [Cu+2].[NH-]c1ccccc1C(=O)O.[NH-]c1ccccc1C(=O)O | CEM cells HIV-1 protection, formazan growth assay | 4.76 |
| Cc1cc(Cl)c2c(c1)C(=O)/C(=C/c1ccc(Cl)cc1)O2 | CEM cells HIV-1 protection, formazan growth assay | 4.80 |

Input COC1/C=C/OC2(C)Oc3c(C)c(O)c4c(O)c(c(/C=N/N5CCOCC5)c(O)c4c3C2=O)NC(=O)C(C)=C/C=C/C(C)C(O)C(C)C(O)C(C)C(OC(C)=O)C1C (stereo not given) , output reported pIC50. 4.45

Input `O=C(O)c1cc(O)cc(O)c1N=Nc1ccc(CCc2ccc(N=Nc3c(O)cc(O)cc3C(=O)O)cc2S(=O)(=O)O)c(S(=O)(=O)O)c1` , output reported pIC50. 4.12

----------
- Tested on: CEM cells HIV-1 protection, formazan growth assay
- ASSAY_METHOD_TEXT: NCI AIDS Antiviral Assay
- TEST_CONTEXT: measured here: growth of uninfected CEM cells
PROPERTY: pIC50
Answer as the number alone; pIC50 is minus log10 of concentration in mol/L.

| MOLECULE_SMILES | SYSTEM | pIC50 |
| --- | --- | --- |
| C[C@@H]1C(=O)c2c(O)cc3c(c2O[C@@H]1C)CCC(C)(C)O3 | CEM cells HIV-1 protection, formazan growth assay | 4.32 |
| COc1ccc(/C=N/O)cc1OC | CEM cells HIV-1 protection, formazan growth assay | 3.11 |
| N=C(N)N=Nc1cc(O)c(NN=C(N)N)cc1O | CEM cells HIV-1 protection, formazan growth assay | 3.96 |
| CC(=O)N(C)OC(=O)CC(=O)c1ccccc1 | CEM cells HIV-1 protection, formazan growth assay | 3.18 |

Input `CCCCCCCCOc1ccc(C(=O)c2ccccc2)c(O)c1` , output reported pIC50. 4.02

Input `Cc1cc(Cl)ccc1N=NC(=O)NNc1ccc(Cl)cc1C` , output reported pIC50. 4.28

----------
- Test system: CEM cells HIV-1 protection, formazan growth assay
- ASSAY_METHOD_TEXT: NCI AIDS Antiviral Assay;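 active means compounds giving half or more protection of infected cells from virus-caused growth loss, again on retest; inactive means the rest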
Choose the fitting class; nothing outside active, inactive is accepted.

| MOLECULE | CLASS |
| --- | --- |
| C=CCNC1=C2C[C@@H](C)C[C@@H](OC)[C@@H](OC(=O)CCCN)[C@H](C)/C=C(\C)[C@@H](OC(N)=O)[C@H](OC)/C=C\C=C(/C)C(=O)NC(=CC1=O)C2=O | inactive |
| COC(=O)c1c/c(=N\NC(=O)CC(=O)Nc2ccc(C)cc2)c2ccccc2o1 | inactive |
| CC(C)OC(=O)c1ccc(NCC2=CC(=O)C=CC2=O)cc1Cl | inactive |
| COc1cc(CC(=O)O)c([N+](=O)[O-])cc1OC | inactive |
| O=C(NNC(=S)Nc1ccccc1)c1csc(NC(=S)NC2CCCCC2)n1 | inactive |

Per the assay record, what outcome was assigned to CC1OC(OC2CC(O)(C(=O)CO)Cc3c(O)c4c(c(O)c32)C(=O)c2ccccc2C4=O)CC(N)C1O (centres undefined) ? inactive

Per the assay record, what outcome was assigned to `Cc1cc(C)nc(NS(=O)(=O)c2ccc(NC(=O)c3ccc4nc5ccccc5c(Nc5ccc(S(=O)(=O)N=C(N)N)cc5)c4c3)cc2)n1` ? active

Per the assay record, what outcome was assigned to `COc1cc(-c2coc3cc(O)ccc3c2=O)c(O)c(OC)c1OC` ? inactive
